- Test system: Candida albicans
- measurement.description: Antimicrobial activity against fluconazole-resistant Candida albicans
- Assay type: functional
Provide the recorded MIC for the entries that follow.

Answered cases to consult:
# molecule, value.observed
measured = [
    ("CC1(C)CC[C@]2(C(=O)O)CC[C@]3(C)C(=CC[C@@H]4[C@@]5(C)CC[C@H](OCC(O)CNCc6ccoc6)C(C)(C)[C@@H]5CC[C@]43C)[C@@H]2C1 (stereo partly drawn)", "> 64 µg/mL"),
    ("CCCCCCCCCCCCC(=O)O[C@H]1CC[C@]2(C)[C@H]3CC=C4[C@@H]5CC(C)(C)CC[C@]5(C(=O)O)CC[C@@]4(C)[C@]3(C)CC[C@H]2C1(C)C", "> 64 µg/mL"),
]

--- query ---
State recorded MIC with Candida albicans, entry `CC(=O)O[C@H]1CC[C@]2(C)[C@H]3CC=C4[C@@H]5CC(C)(C)CC[C@]5(C(=O)N(C)C)CC[C@@]4(C)[C@]3(C)CC[C@H]2C1(C)C` , no comment.
> 64 µg/mL
